All values here come from patent US20230406883A1.

hNK1R, IP3 Efficacy values, listed per item
- testedTarget: hNK1R (Homo sapiens, UniProt P25103)
- Construct: host or cells: COS-7
- Sequence (P25103 whole entry): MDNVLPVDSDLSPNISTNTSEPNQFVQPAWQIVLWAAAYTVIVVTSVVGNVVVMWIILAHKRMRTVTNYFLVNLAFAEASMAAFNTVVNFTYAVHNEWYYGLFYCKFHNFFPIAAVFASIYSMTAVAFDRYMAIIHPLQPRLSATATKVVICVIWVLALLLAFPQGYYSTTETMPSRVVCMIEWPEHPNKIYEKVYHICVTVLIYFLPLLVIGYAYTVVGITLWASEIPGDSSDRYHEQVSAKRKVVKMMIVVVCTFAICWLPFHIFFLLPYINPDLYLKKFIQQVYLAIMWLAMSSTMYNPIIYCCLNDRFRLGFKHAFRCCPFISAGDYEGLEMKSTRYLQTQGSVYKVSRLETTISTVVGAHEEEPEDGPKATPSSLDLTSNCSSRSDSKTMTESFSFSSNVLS
- experimentNotes: IP3 assay (inositol trisphosphate, 3H-myoinositol) in transiently transfected COS-7 cells
- Assay type: cell-based
- measurementSetup: COS-7 cells; figure legends: percent of 10^-6 M NKA
Numbered stars: 1 amine (or outer) side, 2 acyl side, 3 side chain; on linkers, the order of the positions; unused ones are H or OH. Square brackets hold non-standard residues; d marks the D form. Peptide text beside a SMILES is read from it. * marks the point of attachment. C18 diacid = O=C(O)CCCCCCCCCCCCCCCCC(=O)*; C16 diacid = O=C(O)CCCCCCCCCCCCCCC(=O)*; Phe(4-F) = N[C@@H](Cc1ccc(F)cc1)C(=O)O; γGlu = O=C(O)[C@H](CCC(=O)[*:2])N[*:1]; NMeL = CN[C@@H](CC(C)C)C(=O)O; Nle = CCCC[C@H](N)C(=O)O; AEEA = NCCOCCOCC(=O)O
Kindly provide the numeric value in % only, without the unit symbol.

compound	unitName	hNK1R, IP3 Efficacy
CCCC[C@H](NC(=O)[C@H](CC(C)C)N(C)C(=O)CNC(=O)[C@@H](NC(=O)[C@H](Cc1ccc(O)cc1)NC(=O)[C@H](CCCCN)NC(=O)[C@H](CC(=O)O)NC(=O)COCCOCCNC(=O)COCCOCCNC(=O)CC[C@H](NC(=O)CCCCCCCCCCCCCCC(=O)O)C(=O)O)C(C)C)C(N)=O [compound 367, *Asp;Lys;Tyr;Val;Gly;NmLeu;Nle;NH2] ({C16 diacid-γGlu-AEEA-AEEA}-DKYVG[NMeL][Nle]-NH2)	%	20

Proceed to the following item.
Query block: Would you mind telling me what hNK1R, IP3 Efficacy value was observed for CC(C)C[C@@H](C(=O)N[C@@H](Cc1ccc(F)cc1)C(N)=O)N(C)C(=O)CNC(=O)[C@@H](NC(=O)[C@H](Cc1ccc(O)cc1)NC(=O)[C@H](CCCCN)NC(=O)[C@H](CC(=O)O)NC(=O)COCCOCCNC(=O)COCCOCCNC(=O)CC[C@H](NC(=O)CCCCCCCCCCCCCCCCC(=O)O)C(=O)O)C(C)C [compound 369, *Asp;Lys;Tyr;Val;Gly;NmLeu;4-F-Phe;NH2] ({C18 diacid-γGlu-AEEA-AEEA}-DKYVG[NMeL][Phe(4-F)]-NH2) ?
Result block: 40

###

Examples of compounds with documented pEC50 follow.
- testedTarget: hNK1R (Homo sapiens, UniProt P25103)
- experimentNotes: IP3 assay (inositol trisphosphate, 3H-myoinositol) in transiently transfected COS-7 cells
- measurementSetup: COS-7 cells, 0.2% ovalbumin buffer
Numbered stars: 1 amine (or outer) side, 2 acyl side, 3 side chain; on linkers, the order of the positions; unused ones are H or OH. Square brackets hold non-standard residues; d marks the D form. Peptide text beside a SMILES is read from it. * marks the point of attachment. C18 diacid = O=C(O)CCCCCCCCCCCCCCCCC(=O)*; γGlu = O=C(O)[C@H](CCC(=O)[*:2])N[*:1]; NMeL = CN[C@@H](CC(C)C)C(=O)O; hSer = N[C@@H](CCO)C(=O)O; Nle = CCCC[C@H](N)C(=O)O; AEEA = NCCOCCOCC(=O)O
For clarity, pEC50 is expressed as the negative log10 of concentration in mol/L.

compound	testedTarget	endpointLabel	valueReported
CCCC[C@H](NC(=O)[C@H](CC(C)C)N(C)C(=O)CNC(=O)[C@@H](NC(=O)[C@H](Cc1ccc(O)cc1)NC(=O)[C@H](CCCCN)NC(=O)[C@@H](N)CC(=O)O)C(C)C)C(N)=O [compound 374, Asp;Lys;Tyr;Val;Gly;NmLeu;Nle;NH2] (H-DKYVG[NMeL][Nle]-NH2)	hNK1R (Homo sapiens, UniProt P25103)	pEC50	6.70
CCCC[C@H](NC(=O)[C@H](CC(C)C)N(C)C(=O)CNC(=O)[C@@H](NC(=O)[C@H](Cc1ccccc1)NC(=O)[C@H](CCCCN)NC(=O)[C@H](CC(=O)O)NC(=O)COCCOCCNC(=O)COCCOCCNC(=O)CC[C@H](NC(=O)CCCCCCCCCCCCCCCCC(=O)O)C(=O)O)[C@@H](C)O)C(N)=O [compound 387, *Asp;Lys;Phe;Thr;Gly;NmLeu;Nle;NH2] ({C18 diacid-γGlu-AEEA-AEEA}-DKFTG[NMeL][Nle]-NH2)	hNK1R (Homo sapiens, UniProt P25103)	pEC50	8.26
CCCC[C@H](NC(=O)[C@H](CC(C)C)N(C)C(=O)CNC(=O)[C@@H](NC(=O)[C@H](Cc1ccccc1)NC(=O)[C@H](CCCCN)NC(=O)[C@H](CCC(=O)O)NC(=O)COCCOCCNC(=O)COCCOCCNC(=O)CC[C@H](NC(=O)CCCCCCCCCCCCCCCCC(=O)O)C(=O)O)C(C)C)C(N)=O [compound 335, *Glu;Lys;Phe;Val;Gly;NmLeu;Nle;NH2] ({C18 diacid-γGlu-AEEA-AEEA}-EKFVG[NMeL][Nle]-NH2)	hNK1R (Homo sapiens, UniProt P25103)	pEC50	7.44

Query block: Which pEC50 is reported for this compound? COCC[C@H](NC(=O)[C@H](CC(C)C)N(C)C(=O)CNC(=O)[C@@H](NC(=O)[C@H](Cc1ccccc1)NC(=O)[C@H](CCCCN)NC(=O)[C@H](CC(=O)O)NC(=O)COCCOCCNC(=O)COCCOCCNC(=O)CC[C@H](NC(=O)CCCCCCCCCCCCCCCCC(=O)O)C(=O)O)C(C)C)C(N)=O [compound 384, *Asp;Lys;Phe;Val;Gly;NmLeu;Metox;NH2] ({C18 diacid-γGlu-AEEA-AEEA}-DKFVG[NMeL][hSer](Me)-NH2)
Result block: 7.80

Query block: Looking for the measured pEC50 of CCCC[C@H](NC(=O)[C@H](CC(C)C)N(C)C(=O)CNC(=O)[C@@H](NC(=O)[C@H](Cc1ccccc1)NC(=O)[C@H](CCCCN)NC(=O)[C@@H](N)CC(=O)O)C(C)C)C(N)=O [compound 375, Asp;Lys;Phe;Val;Gly;NmLeu;Nle;NH2] , can you help?
Result block: 7.92

###

- testedTarget: UniProt P25103
- experimentNotes: IP3 assay (inositol trisphosphate, 3H-myoinositol) in transiently transfected COS-7 cells
- measurementSetup: COS-7 cells, 0.2% ovalbumin buffer
Numbered stars: 1 amine (or outer) side, 2 acyl side, 3 side chain; on linkers, the order of the positions; unused ones are H or OH. Square brackets hold non-standard residues; d marks the D form. Peptide text beside a SMILES is read from it. * marks the point of attachment. C20 diacid = O=C(O)CCCCCCCCCCCCCCCCCCC(=O)*; C18 diacid = O=C(O)CCCCCCCCCCCCCCCCC(=O)*; γGlu = O=C(O)[C@H](CCC(=O)[*:2])N[*:1]; Stearoyl = CCCCCCCCCCCCCCCCCC(=O)*; mTyr = N[C@@H](Cc1cccc(O)c1)C(=O)O; NMeL = CN[C@@H](CC(C)C)C(=O)O; Nle = CCCC[C@H](N)C(=O)O; AEEA = NCCOCCOCC(=O)O
Parameter pEC50: see the listing below.
pEC50 is defined as minus the log10 of a concentration measured in mol/L.

Some entries whose results are on file:
molecule	testedTarget	pEC50
CCCCCCCCCCCCCCCCCC(=O)N[C@@H](CCC(=O)NCCOCCOCC(=O)NCCOCCOCC(=O)N[C@@H](CC(=O)O)C(=O)N[C@@H](CCCCN)C(=O)N[C@@H](Cc1ccc(O)cc1)C(=O)N[C@H](C(=O)NCC(=O)N(C)[C@@H](CC(C)C)C(=O)N[C@@H](CCCC)C(N)=O)C(C)C)C(=O)O [compound 390, *Asp;Lys;Tyr;Val;Gly;NmLeu;Nle;NH2] ({Stearoyl-γGlu-AEEA-AEEA}-DKYVG[NMeL][Nle]-NH2)	UniProt P25103	8.41
CCCC[C@H](NC(=O)[C@H](CC(C)C)N(C)C(=O)CNC(=O)[C@@H](NC(=O)[C@H](Cc1cccc(O)c1)NC(=O)[C@H](CCCCN)NC(=O)[C@H](CC(=O)O)NC(=O)COCCOCCNC(=O)COCCOCCNC(=O)CC[C@H](NC(=O)CCCCCCCCCCCCCCCCC(=O)O)C(=O)O)C(C)C)C(N)=O [compound 361, *Asp;Lys;3-OH-Phe;Val;Gly;NmLeu;Nle;NH2] ({C18 diacid-γGlu-AEEA-AEEA}-DK[mTyr]VG[NMeL][Nle]-NH2)	UniProt P25103	6.70
CCCC[C@H](NC(=O)[C@H](CC(C)C)N(C)C(=O)CNC(=O)[C@@H](NC(=O)[C@H](Cc1ccc(O)cc1)NC(=O)[C@H](CCCCN)NC(=O)[C@H](CC(=O)O)NC(=O)COCCOCCNC(=O)COCCOCCNC(=O)CC[C@H](NC(=O)CCCCCCCCCCCCCCCCCCC(=O)O)C(=O)O)C(C)C)C(N)=O [compound 380, *Asp;Lys;Tyr;Val;Gly;NmLeu;Nle;NH2] ({C20 diacid-γGlu-AEEA-AEEA}-DKYVG[NMeL][Nle]-NH2)	UniProt P25103	7.24

Next, consider the following molecule.
Query block: So what's the measured pEC50 for this one? CCCC[C@H](NC(=O)[C@H](CC(C)C)N(C)C(=O)CNC(=O)[C@@H](NC(=O)[C@H](Cc1ccccc1)NC(=O)[C@H](CCCNC(=N)N)NC(=O)[C@H](CC(=O)O)NC(=O)COCCOCCNC(=O)COCCOCCNC(=O)CC[C@H](NC(=O)CCCCCCCCCCCCCCCCC(=O)O)C(=O)O)C(C)C)C(N)=O [compound 306, *Asp;Arg;Phe;Val;Gly;NmLeu;Nle;NH2] ({C18 diacid-γGlu-AEEA-AEEA}-DRFVG[NMeL][Nle]-NH2)
Result block: 7.72
